# Tested on: SB.mhdgc-1
# TEST: AC50 for growth inhibition (viability) (log10 M); higher = less potent
# CONDITION_INFO: SB.mhdgc-1 (hereditary c.1380delA CDH1 gastric cancer)
Labelling field: enter T if recorded AC50 for growth inhibition (log10 M) is less than -5. Enter F if it equals or exceeds that cut-off.

Lab log: compare recorded AC50 for growth inhibition (log10 M) with -5; is it strictly lower for `Cc1c(CCOc2ccc(C(=O)O)cc2)c2cc(Cl)ccc2n1C(c1ccccc1)c1ccccc1` ? F

Lab log: compare recorded AC50 for growth inhibition (log10 M) with -5; is it strictly lower for `CN(C)CCCN\C1=C\2C(=O)N(C)C(=O)\N=C2N(C)C3=C1C=CC=C3` ? T

Lab log: compare recorded AC50 for growth inhibition (log10 M) with -5; is it strictly lower for `Cc1cc(Nc2cc(N3CCN(C)CC3)nc(/C=C/c3ccccc3)n2)n[nH]1` ? F
